Provenance of the data: the METLIN SMRT retention time set (Domingo-Almenara et al. 2019)

Assay: gradient 5% acetonitrile 3 min, to 50% in 2 min, to 85% in 15 min, held 3 min, 100 µL/min
Details: column: Zorbax Extend-C18 2.1 x 50 mm; eluents: water / acetonitrile, 0.1% formic acid
assay.readout: RP-LC retention time (s)

Field: example entries. Status: answers known.
[[record]]
compound = "CCCCc1nnc2sc(COc3ccc(C)c(C)c3)nn12"
test_result = 1120

[[record]]
compound = "CNC(=O)C1CCCN(c2nc3ncn(CC(=O)Nc4cc(Cl)ccc4C)c(=O)c3s2)C1 (stereo not drawn)"
test_result = 669

[[record]]
compound = "O=C(NC1CC1)C1CCCN(c2ncnc3c2oc2ccccc23)C1 (stereo not drawn)"
test_result = 632

[[record]]
compound = "O=C(Nc1cccc(Cl)c1)N1CCN(Cc2nc3ccccc3o2)CC1"
test_result = 728

[[record]]
compound = "O[C@@H]1C[C@@H](c2nnc3n2CCN(Cc2cccc(F)c2)C3)N(Cc2cccnc2)C1"
test_result = 588


P: CC(C)CN1CCn2cc(S(=O)(=O)NCc3cc(F)cc(F)c3)cc2C1=O
Q: CCCOc1nc2ccccc2nc1N1CCCC(C(=O)NCc2ccccc2Cl)C1 (stereo not drawn)
**Query** Select one. Lower RP-LC retention time: P or Q Label of pick, please.
**Result** P
